Study System: Caspase-3 (Homo sapiens)
Experimental Details: Inhibition of recombinant CPP32 (unknown origin) assessed as ratio of irreversible rate constant K3 to dissociation constant of the reversible binding step Ki pre-incubated for 60 mins with Acetyl-Tyr-Val-Ala-Asp-amino-4-methylcoumarin substrate followed by enzyme addition by fluorescence based assay
Endpoint Label: Ratio (M⁻¹ s⁻¹)

See these solved cases before continuing.
Input `C[C@H](NC(=O)C(=O)NCc1cccc2ccccc12)C(=O)N[C@@H](CC(=O)O)C(=O)COc1c(F)c(F)cc(F)c1F` , output reported Ratio. 158000

Input CC(C)[C@H](NC(=O)C(=O)NC1CCCc2ccccc21)C(=O)N[C@@H](CC(=O)O)C(=O)COc1c(F)c(F)cc(F)c1F (some centres not stated) , output reported Ratio. 98600

Input `C[C@H](NC(=O)C(=O)Nc1ccccc1-c1ccccc1)C(=O)N[C@@H](CC(=O)O)C(=O)COP(=O)(c1ccccc1)c1ccccc1` , output reported Ratio. 243000

Input `C[C@H](NC(=O)C(=O)Nc1cc(C(C)(C)C)ccc1C(C)(C)C)C(=O)N[C@@H](CC(=O)O)C(=O)COP(=O)(c1ccccc1)c1ccccc1` , output reported Ratio. 104000

a. CC(C)[C@H](NC(=O)C(=O)NC(c1ccccc1)c1ccccc1)C(=O)N[C@@H](CC(=O)O)C(=O)COc1c(F)c(F)cc(F)c1F
b. C[C@H](NC(=O)C(=O)Nc1ccccc1C(C)(C)C)C(=O)N[C@@H](CC(=O)O)C(=O)COc1ccccc1F
c. C[C@H](NC(=O)C(=O)Nc1ccccc1Cc1ccccc1)C(=O)N[C@@H](CC(=O)O)C(=O)COc1c(F)c(F)cc(F)c1F
Put these in order: smallest Ratio first, largest last. Show the ranking through the labels, in the order asked for. c, a, b
(c: 3430 M⁻¹ s⁻¹, a: 5380 M⁻¹ s⁻¹, b: 67700 M⁻¹ s⁻¹)

* * *

Study System: Caspase-6 (Homo sapiens) (UniProt P55212)
Sequence (P55212 24-179 limits assumed): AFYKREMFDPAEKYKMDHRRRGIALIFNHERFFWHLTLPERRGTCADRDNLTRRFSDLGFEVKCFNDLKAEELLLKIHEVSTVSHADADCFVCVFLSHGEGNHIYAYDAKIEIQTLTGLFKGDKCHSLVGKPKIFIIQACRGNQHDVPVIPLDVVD
Sequence (P55212 194-293 limits assumed): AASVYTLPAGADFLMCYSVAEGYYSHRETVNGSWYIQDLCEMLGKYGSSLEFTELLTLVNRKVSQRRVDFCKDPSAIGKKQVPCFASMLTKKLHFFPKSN
Experimental Details: Inhibition of recombinant MCH2 (unknown origin) assessed as ratio of irreversible rate constant K3 to dissociation constant of the reversible binding step Ki pre-incubated for 60 mins with Acetyl-Tyr-Val-Ala-Asp-amino-4-methylcoumarin substrate followed by enzyme addition by fluorescence based assay
Endpoint Label: Ratio (M⁻¹ s⁻¹)

Input `CC(C)[C@H](NC(=O)C(=O)Nc1cnccn1)C(=O)N[C@@H](CC(=O)O)C(=O)COc1c(F)c(F)cc(F)c1F` , output reported Ratio. 175000

Input `CC(C)[C@H](NC(=O)C(=O)Nc1nc2ccccc2[nH]1)C(=O)N[C@@H](CC(=O)O)C(=O)COc1c(F)c(F)cc(F)c1F` , output reported Ratio. 1840

A. CC(C)[C@H](NC(=O)C(=O)NCc1ccccc1)C(=O)N[C@@H](CC(=O)O)C(=O)COc1c(F)c(F)cc(F)c1F
B. CC(C)[C@H](NC(=O)C(=O)NC(c1ccccc1)c1ccccc1)C(=O)N[C@@H](CC(=O)O)C(=O)COc1c(F)c(F)cc(F)c1F
Recorded Ratio values differ for A and B ; which one is higher? Use the label to indicate which entry you chose. A
(A: 16600 M⁻¹ s⁻¹, B: 1430 M⁻¹ s⁻¹)

* * *

Study System: Caspase-8 (Homo sapiens) (UniProt Q14790)
Sequence (Q14790 217-374 limits assumed): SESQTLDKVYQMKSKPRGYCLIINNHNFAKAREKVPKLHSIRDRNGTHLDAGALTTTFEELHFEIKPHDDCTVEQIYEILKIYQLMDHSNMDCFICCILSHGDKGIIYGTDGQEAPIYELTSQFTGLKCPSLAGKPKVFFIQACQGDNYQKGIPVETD
Sequence (Q14790 385-479 limits assumed): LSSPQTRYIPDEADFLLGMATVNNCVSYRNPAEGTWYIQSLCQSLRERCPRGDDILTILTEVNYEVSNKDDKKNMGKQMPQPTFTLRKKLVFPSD
Experimental Details: Inhibition of recombinant MCH5 (unknown origin) assessed as ratio of irreversible rate constant K3 to dissociation constant of the reversible binding step Ki pre-incubated for 60 mins with Acetyl-Tyr-Val-Ala-Asp-amino-4-methylcoumarin substrate followed by enzyme addition by fluorescence based assay
Endpoint Label: Ratio (M⁻¹ s⁻¹)

See these solved cases before continuing.
Fill in Ratio for `CC(C)[C@H](NC(=O)C(=O)Nc1ccccc1C(C)(C)C)C(=O)N[C@@H](CC(=O)O)C(=O)COc1c(F)c(F)cc(F)c1F` tested with Caspase-8 (Homo sapiens) (UniProt Q14790). 1.16e+06

Fill in Ratio for `CC(C)[C@H](NC(=O)C(=O)NCCc1ccccc1)C(=O)N[C@@H](CC(=O)O)C(=O)COc1c(F)c(F)cc(F)c1F` tested with Caspase-8 (Homo sapiens) (UniProt Q14790). 16600

Fill in Ratio for `C[C@H](NC(=O)C(=O)Nc1ccccc1F)C(=O)N[C@@H](CC(=O)O)C(=O)COc1c(F)c(F)cc(F)c1F` tested with Caspase-8 (Homo sapiens) (UniProt Q14790). 170000

Fill in Ratio for `C[C@H](NC(=O)C(=O)Nc1cc(C(C)(C)C)ccc1C(C)(C)C)C(=O)N[C@@H](CC(=O)O)C(=O)COC(=O)c1c(Cl)cccc1Cl` tested with Caspase-8 (Homo sapiens) (UniProt Q14790). 306000

1. CC(C)[C@H](NC(=O)C(=O)Nc1ccccc1)C(=O)N[C@@H](CC(=O)O)C(=O)COc1c(F)c(F)cc(F)c1F
2. CC(C)[C@H](NC(=O)C(=O)Nc1ccc(F)cc1)C(=O)N[C@@H](CC(=O)O)C(=O)COc1c(F)c(F)cc(F)c1F
Recorded Ratio values differ for 1 and 2 ; which one is higher? Use the label to indicate which entry you chose. 1
